Taken from ChEMBL document CHEMBL3853294.

Test: Growth inhibition of human BT474 cells at 10 uM after 72 hrs by cell titer-glo based luminescence assay
Parameters: species or system BT-474
Conditions: read-out: GI
Can you tell me inhibition at 72 h, 10 µM for the items I'm about to list?
One number for each entry, in %.

These recorded examples may help you get a feel for the data.
• COc1cc(/C=C/C(=O)NC(NC(=S)Nc2ccccn2)C2CC2)cc(OC)c1OC (centres undefined) = 20.1
• CC(C)C(NC(=O)/C=C/c1ccccc1)NC(=S)NC1CCCCC1 (centres undefined) = 10.3
• COc1cc(/C=C/C(=O)NC(NC(=S)Nc2ccccc2C)C2CC2)cc(OC)c1OC (centres undefined) = 44

Continue with the compound presented below.
QUERY: # input compound: COc1cc(/C=C/C(=O)NC(NC(=S)Nc2ccccc2)C(C)(C)C)cc(OC)c1OC (centres undefined) ; wanted: its inhibition at 72 h, 10 µM
RESULT: 2.2
